Values were extracted from paper PMC7819943.

system name: OsWRKY34 (Oryza sativa, UniProt Q0JBA9 1-250)
Sequence (Q0JBA9 entry or part of it): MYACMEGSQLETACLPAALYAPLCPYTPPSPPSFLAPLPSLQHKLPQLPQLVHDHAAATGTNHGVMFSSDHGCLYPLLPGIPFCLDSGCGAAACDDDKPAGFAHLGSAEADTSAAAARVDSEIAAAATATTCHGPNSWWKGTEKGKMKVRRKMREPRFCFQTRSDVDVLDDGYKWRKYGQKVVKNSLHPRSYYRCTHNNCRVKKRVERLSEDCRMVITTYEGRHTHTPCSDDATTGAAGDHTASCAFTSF
measurement description: protein-binding microarray (RPBM); PBS, 2% BSA, 51.3 ng/ul salmon testes DNA, 50 uM zinc acetate, 200 nM TF, 25 C, 1 h; high values mean tight binding
test parameters: protein: recombinant; tags: N-terminal polyhistidine and DsRed monomer fusion (pET32a); label: CyDye5-dUTP incorporated in the synthesized complementary strand; 3' TTTTT single-stranded linker to array surface; dsDNA, one strand shown
Whole data set: some 68,000 sequences, median “fluorescence intensity (a.u.)” near 9,100, cut for the highest 2% near 16,000. Shown is part of a subset that was picked to be rich in the highest values.
measured metric: binding signal

Solved entries (count: 5):
CACCTTCTTTTTCTCTCTCTCTCTCTCTCTCTTTCTCATCCGGAGTCACCTAGTGCAG :: 10300 fluorescence intensity (a.u.)
CGGTGTTGGGATCGGGTTTGGAGGTGGTAAGGGTGGTGGTCGGAGTCACCTAGTGCAG :: 10600 fluorescence intensity (a.u.)
AGGCGAGCGAGACGGCGGCGGGCGGGCGGGGCGGGCGACGCGGAGTCACCTAGTGCAG :: 14800 fluorescence intensity (a.u.)
TTCTTTTCGGTTGATTGTTTTTCTTTGTATTTCAGTGTTGCGGAGTCACCTAGTGCAG :: 9180 fluorescence intensity (a.u.)
TTACTACTTCACCGTCTCTTTTTCTTCCTCAGCGCACAAACGGAGTCACCTAGTGCAG :: 9610 fluorescence intensity (a.u.)

Prompt: Could you please provide reported binding signal for TAGTGGGGAGGCGGTGGTGCTGCGGGGAGGGAGGGAGCACCGGAGTCACCTAGTGCAG ? Thanks!
Completion: 12800 fluorescence intensity (a.u.)

Prompt: Could you please provide reported binding signal for GACTACTGAATGTGCTATTCTTGGCCTTTTCTATAGATAACGGAGTCACCTAGTGCAG ? Thanks!
Completion: 9960 fluorescence intensity (a.u.)

Prompt: Could you please provide reported binding signal for CGGCAGTGTTCTTTTTTTTTTACACGCGTTTTTTTTTACACGGAGTCACCTAGTGCAG ? Thanks!
Completion: 10800 fluorescence intensity (a.u.)

Prompt: Could you please provide reported binding signal for CGATGGCTGGAGGGGAGGCGGCGGCGCATCGTGGCGGGCGCGGAGTCACCTAGTGCAG ? Thanks!
Completion: 8030 fluorescence intensity (a.u.)

Prompt: Could you please provide reported binding signal for TGACGACGCCATTGACTTTTGAACACATGTTTGACCATTCCGGAGTCACCTAGTGCAG ? Thanks!
Completion: 15900 fluorescence intensity (a.u.)

Prompt: Could you please provide reported binding signal for CCGGTGGGGTGGGGAATTCGGCGGAGGAAGACGACGACGACGGAGTCACCTAGTGCAG ? Thanks!
Completion: 9250 fluorescence intensity (a.u.)

Prompt: Could you please provide reported binding signal for GTCGTGGGCGGGAGGTGGTGGTGGTGGTGCTGCTGCATTGCGGAGTCACCTAGTGCAG ? Thanks!
Completion: 11600 fluorescence intensity (a.u.)

###

system name: OsWRKY34 (Oryza sativa, UniProt Q0JBA9 1-250)
measurement description: protein-binding microarray (RPBM); PBS, 2% BSA, 51.3 ng/ul salmon testes DNA, 50 uM zinc acetate, 200 nM TF, 25 C, 1 h; high values mean tight binding
test parameters: protein: recombinant; tags: N-terminal polyhistidine and DsRed monomer fusion (pET32a); label: CyDye5-dUTP incorporated in the synthesized complementary strand; 3' TTTTT single-stranded linker to array surface; dsDNA, one strand shown
Whole data set: some 68,000 sequences, median “fluorescence intensity (a.u.)” near 9,100, cut for the highest 2% near 16,000. This is one part of a sample in which the highest values are shown more often than they occur.
The entries below are paired with their reported binding signal.

ACTCCACTTAGGCTGCATTCGTTCTAGATACATTGAGTTACGGAGTCACCTAGTGCAG :: 9970 fluorescence intensity (a.u.)
AGGAGGTGTTGTTTCTTGCGATCTTGGGTTGATTGATATGCGGAGTCACCTAGTGCAG :: 8460 fluorescence intensity (a.u.)
TCCTCTCTGTCTTCTGTCTTCTCTTCTTCTTCCTCACCAACGGAGTCACCTAGTGCAG :: 11600 fluorescence intensity (a.u.)
GCCGCGGCGGAGCTCCCGTTTCCGTTGCCGTCTCCGGCGCCGGAGTCACCTAGTGCAG :: 11000 fluorescence intensity (a.u.)
ATGTTGATATTGTGGTTGGTTGTGGGCATGTTACATTTTCCGGAGTCACCTAGTGCAG :: 11500 fluorescence intensity (a.u.)
CTCTGTGTTGTTTTTGGCATGTGTTTGATATTTGGAGTTCCGGAGTCACCTAGTGCAG :: 16600 fluorescence intensity (a.u.)

Prompt: Could you please provide reported binding signal for AAGAGACTTCTATATCTCTATATCCTTCTTATTTGCGTCCCGGAGTCACCTAGTGCAG ? Thanks!
Completion: 8080 fluorescence intensity (a.u.)

Prompt: Could you please provide reported binding signal for GTCTCACCGGAGCTCCGCCGCCGCCGCCGCCGTTTTCTCCCGGAGTCACCTAGTGCAG ? Thanks!
Completion: 25700 fluorescence intensity (a.u.)

Prompt: Could you please provide reported binding signal for TGATATGTTGGTGAATGGTAATTTTTTGGGTTGATATATTCGGAGTCACCTAGTGCAG ? Thanks!
Completion: 11200 fluorescence intensity (a.u.)

###

system name: OsWRKY34 (Oryza sativa, UniProt Q0JBA9 1-250)
measurement description: protein-binding microarray (RPBM); PBS, 2% BSA, 51.3 ng/ul salmon testes DNA, 50 uM zinc acetate, 200 nM TF, 25 C, 1 h; high values mean tight binding
test parameters: protein: recombinant; tags: N-terminal polyhistidine and DsRed monomer fusion (pET32a); label: CyDye5-dUTP incorporated in the synthesized complementary strand; 3' TTTTT single-stranded linker to array surface; dsDNA, one strand shown
Over roughly 68,000 sequences, “fluorescence intensity (a.u.)” has its median near 9,100; the highest 2% begin near 16,000. The sample as a whole holds a higher share of the highest values than the screen did.
measured metric: binding signal

TCGAGAGGTGGGGAGGGGAGGGGAGCAGAGGGCGGCATCGCGGAGTCACCTAGTGCAG :: 18600 fluorescence intensity (a.u.)

Prompt: Could you please provide reported binding signal for CGGGCGGCGGGTGCGGACTGCGGAGGAGGCTGGCGGGGCACGGAGTCACCTAGTGCAG ? Thanks!
Completion: 8630 fluorescence intensity (a.u.)

Prompt: Could you please provide reported binding signal for GTTTTTTTTTTTTGGCGCAGGGAGTGGTGGCGTGGTGTGTCGGAGTCACCTAGTGCAG ? Thanks!
Completion: 8170 fluorescence intensity (a.u.)

Prompt: Could you please provide reported binding signal for GAGGCGGGTGATAGCGCGGTGGGGCGGTGGCGGCGGTGGACGGAGTCACCTAGTGCAG ? Thanks!
Completion: 13000 fluorescence intensity (a.u.)

Prompt: Could you please provide reported binding signal for TTCTTTTCGCTAGTGATGTCTAGCGTTTCTTTTGACAAATCGGAGTCACCTAGTGCAG ? Thanks!
Completion: 8560 fluorescence intensity (a.u.)

Prompt: Could you please provide reported binding signal for GGTGAAGCTCTGCGCTGACACGTTGATGCAGCGGAGCACGCGGAGTCACCTAGTGCAG ? Thanks!
Completion: 18900 fluorescence intensity (a.u.)

Prompt: Could you please provide reported binding signal for CCTCTTAACTCTTTCCCATTCCCAAATGCGCCACTGTCTCCGGAGTCACCTAGTGCAG ? Thanks!
Completion: 9190 fluorescence intensity (a.u.)

Prompt: Could you please provide reported binding signal for TCCATTTCCCGCCGCCTCCCCTCTCGCGATCCATATCCATCGGAGTCACCTAGTGCAG ? Thanks!
Completion: 8050 fluorescence intensity (a.u.)

Prompt: Could you please provide reported binding signal for CATGTCCAACGTTTGACCATTTGCCTTATTTAAAATTTTTCGGAGTCACCTAGTGCAG ? Thanks!
Completion: 9250 fluorescence intensity (a.u.)

Prompt: Could you please provide reported binding signal for CAAAAACACTCCACATATTTTTCCTTTTAGTTACGTAATTCGGAGTCACCTAGTGCAG ? Thanks!
Completion: 9500 fluorescence intensity (a.u.)

Prompt: Could you please provide reported binding signal for TGTGCTGTGTGGTGTACTGGTGTGTGGGCTTAATAATTGTCGGAGTCACCTAGTGCAG ? Thanks!
Completion: 14200 fluorescence intensity (a.u.)

Prompt: Could you please provide reported binding signal for GAGGGAGGGAGGGAGGGAGGGCGTGTAGCGTAGTTGGTGTCGGAGTCACCTAGTGCAG ? Thanks!
Completion: 18800 fluorescence intensity (a.u.)

Prompt: Could you please provide reported binding signal for TGCACACATGCACACACGCGCGCGCTGCTGCTGCTGCTGACGGAGTCACCTAGTGCAG ? Thanks!
Completion: 8160 fluorescence intensity (a.u.)

Prompt: Could you please provide reported binding signal for GCACACCCTCGCTCTGACGACCCTGTCACGTTGAGCTACGCGGAGTCACCTAGTGCAG ? Thanks!
Completion: 8240 fluorescence intensity (a.u.)

Prompt: Could you please provide reported binding signal for CTGCGGGGAGGTGTAGGAGGAGGAGGGCGGAGGAGGTGGTCGGAGTCACCTAGTGCAG ? Thanks!
Completion: 8780 fluorescence intensity (a.u.)

Prompt: Could you please provide reported binding signal for CATAGTCGTCTTCCTCGATCAATCCGCTCCGCTCCGTCTTCGGAGTCACCTAGTGCAG ? Thanks!
Completion: 8440 fluorescence intensity (a.u.)

Prompt: Could you please provide reported binding signal for GGGAGGGGCTGCTAATTCGGTGTGATTAGTACAGTAGTTTCGGAGTCACCTAGTGCAG ? Thanks!
Completion: 10100 fluorescence intensity (a.u.)

Prompt: Could you please provide reported binding signal for GGGAGGGAGGGTGGCTGTAGTGTGCTAATCACAAATAATTCGGAGTCACCTAGTGCAG ? Thanks!
Completion: 20500 fluorescence intensity (a.u.)

Prompt: Could you please provide reported binding signal for CCTTTCACCCGCCCAAACTCATCCATCCATCGATCGCCCTCGGAGTCACCTAGTGCAG ? Thanks!
Completion: 8560 fluorescence intensity (a.u.)
